# assaySystem: LCK tyrosine kinase (Homo sapiens, UniProt P06239, C224D/P223M)
# Construct: starting from amino acid residue 223 to the end of the protein at residue 509
# Sequence (P06239 223-509 P223M/C224D): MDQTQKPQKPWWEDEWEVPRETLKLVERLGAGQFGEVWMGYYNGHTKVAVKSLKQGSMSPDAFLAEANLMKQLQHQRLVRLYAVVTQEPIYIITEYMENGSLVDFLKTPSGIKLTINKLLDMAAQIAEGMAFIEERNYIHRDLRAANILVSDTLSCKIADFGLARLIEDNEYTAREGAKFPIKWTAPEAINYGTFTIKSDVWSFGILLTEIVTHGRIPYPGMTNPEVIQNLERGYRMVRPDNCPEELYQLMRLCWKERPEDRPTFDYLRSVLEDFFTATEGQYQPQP
# assayName: LCK spectrophotometric assay
# testContext: Table 1; read-out: Lck-P Ki
parameterMeasured: Ki
Write down the value, and be sure its unit follows.

The following compounds have reported results that may help.
# compound, Ki
records = [
    ("O=C(Nc1cccc(C(=O)c2ccc3c(/C=C/c4ccccn4)n[nH]c3c2)c1)c1ccccc1 [Example 42(a)]", "0.053 µM"),
    ("COc1cc(-c2ccc3c(/C=C/c4ccc(OC)c(OC)c4)n[nH]c3c2)ccc1O [Example 1(a)]", "0.088 µM"),
]

Here's the next entry for you.
Query: Observed Ki on LCK tyrosine kinase (Homo sapiens, UniProt P06239, C224D/P223M) for Oc1cccc(Oc2ccc3c(/C=C/c4ccccc4)n[nH]c3c2)c1 [Example 9(a)] , please.
Result: 0.162 µM

* * *

# assayName: Determination of inhibitor concentration in mouse plasma after intraperitoneal and oral dosing
# Type: in vivo
# testContext: PO, 25 mg/kg, vehicle PEG400:H2O pH 2.3 30:70
# Protocol: Blood collection was via ocular bleed at 0.5, 1, 4 hr with the final time point, 7 hour, via intracardiac puncture. The blood was centrifuged to collect plasma, which was then stored at −80° C. until analysis. Samples were prepared for analysis using an internal standard and sodium hydroxide. […] The samples were then analyzed via HPLC or LC-MS. Compound levels were quantitated by generating a standard curve of known compound concentration in mouse plasma.
Consider the following molecules; for each one, report its AUClast.
One number for each entry, in ng·h/mL.

Example results:
# molecule, AUClast / ng·h/mL
rows = [
    ("O=C(NCc1ccncc1)c1ccccc1Sc1ccc2c(/C=C/c3ccccn3)n[nH]c2c1 [Example 35(p)]", 1435),
    ("O=C(NNC(=O)c1ccccc1Sc1ccc2c(/C=C/c3ccccn3)n[nH]c2c1)c1cccs1 [Example 35(m)]", 10),
    ("CCn1nc(C)cc1C(=O)Nc1cccc(Oc2ccc3c(/C=C/c4c[nH]c(C)n4)n[nH]c3c2)c1 [Example 32(c)]", 388),
    ("Cn1ccnc1/C=N/NC(=O)c1ccccc1Sc1ccc2c(/C=C/c3ccccn3)n[nH]c2c1 [Example 36(a)]", 605),
]

For each of the molecules below, state AUClast.
1. C=CCn1nc(C)cc1C(=O)Nc1cc(C(=O)c2ccc3c(/C=C/c4ccccn4)n[nH]c3c2)ccc1C [Example 41(ff)]
2. CC(=O)Nc1cc(C(=O)c2ccc3c(/C=C/c4ccccn4)n[nH]c3c2)ccc1C [Example 41(gg)]
3. Cc1cc(C(=O)Nc2cc(Nc3ccc4c(/C=C/c5ccccn5)n[nH]c4c3)c(F)cc2C)n(C)n1 [Example 48(b)]

Result:
9176
2692
2191

* * *

# assayName: Determination of inhibitor concentration in mouse plasma after intraperitoneal and oral dosing
# Type: in vivo
# testContext: female, PO, 100 mg/kg, vehicle 0.5% CMC, read-out: Cmax
parameterMeasured: Cmax

Query: Please look up its Cmax: CNC(=O)c1ccccc1Sc1ccc2c(/C=C/c3ccccn3)n[nH]c2c1 [Example 33(a)]
Result: 3560 ng/mL

* * *

# assayName: Determination of inhibitor concentration in mouse plasma after intraperitoneal and oral dosing
# Type: in vivo
# testContext: PO, 50 mg/kg, vehicle PEG400:H2O pH 2.3 30:70
# Procedure: Blood collection was via ocular bleed at 0.5, 1, 4 hr with the final time point, 7 hour, via intracardiac puncture. The blood was centrifuged to collect plasma, which was then stored at −80° C. until analysis. Samples were prepared for analysis using an internal standard and sodium hydroxide. […] The samples were then analyzed via HPLC or LC-MS. Compound levels were quantitated by generating a standard curve of known compound concentration in mouse plasma.
I would appreciate it if you labelled entries True when plasma half-life (T1/2) is 3 h or higher, otherwise False.

# compound, discreteLabel
measured = [
    ("O=C(Nc1cccc(Oc2ccc3c(/C=C/c4ccccn4)n[nH]c3c2)c1)c1ccccc1", "False"),
    ("C=CCONC(=O)c1ccccc1Sc1ccc2c(/C=C/c3ccccn3)n[nH]c2c1", "True"),
    ("CCn1nc(C)cc1C(=O)Nc1cc(C(=O)c2ccc3c(/C=C/c4ccccn4)n[nH]c3c2)ccc1C [Example 41(ee)]", "True"),
    ("O=C(NCC1CC1)c1ccccc1Sc1ccc2c(/C=C/c3ccccn3)n[nH]c2c1", "False"),
]

Query: Is it the case that `O=C(Nc1nccs1)c1ccccc1Sc1ccc2c(/C=C/c3ccccn3)n[nH]c2c1` has plasma half-life (T1/2) reaching or exceeding 3 h?
Result: False

Query: Record C[C@@H]1C[C@H]1C(=O)Nc1cccc(C(=O)c2ccc3c(/C=C/c4ccccn4)n[nH]c3c2)c1 (racemic) ; criterion: plasma half-life (T1/2) no lower than 3 h. Met?
Result: False

Query: hey, is plasma half-life (T1/2) for this one >= 3 h? `COc1cccc(C(=O)Nc2cccc(C(=O)c3ccc4c(/C=C/c5ccccn5)n[nH]c4c3)c2)c1`
Result: False

Query: Is the recorded value of plasma half-life (T1/2) equal to or greater than 3 h for this compound? `CCn1nc(C)cc1C(=O)Nc1cccc(Oc2ccc3c(/C=C/c4ccccn4)n[nH]c3c2)c1`
Result: True

Query: Can `O=C(NCC(F)(F)F)c1ccccc1Sc1ccc2c(/C=C/c3ccccn3)n[nH]c2c1` be said to have plasma half-life (T1/2) at or above 3 h?
Result: False

Query: Is the recorded value of plasma half-life (T1/2) equal to or greater than 3 h for this compound? O=C(c1cccc(NC(=O)C2C[C@H]2c2ccccc2)c1)c1ccc2c(/C=C/c3ccccn3)n[nH]c2c1 (stereo partly drawn)
Result: False

Query: Dear colleague, could you confirm whether `CC(C)ONC(=O)c1ccccc1Sc1ccc2c(/C=C/c3ccccn3)n[nH]c2c1` has plasma half-life (T1/2) at or above 3 h?
Result: False

* * *

What AUClast was measured for each of the following?
# assayName: Determination of inhibitor concentration in mouse plasma after intraperitoneal and oral dosing
# Format: in vivo
# testContext: PO, 50 mg/kg, vehicle PEG400:H2O pH 2.3 30:70
Give bare numbers, in ng·h/mL.

Please review the entries below; each comes with its answer.
# smilesString, parameterMeasured, resultUnits, result
records = [
    ("O=C(Nc1ccccc1)c1ccccc1Sc1ccc2c(/C=C/c3ccccn3)n[nH]c2c1", "AUClast", "ng·h/mL", 183),
    ("O=C(Nc1cc(Nc2ccc3c(/C=C/c4ccccc4)n[nH]c3c2)ccc1F)c1ccccc1", "AUClast", "ng·h/mL", 327),
    ("CCn1nc(C)cc1C(=O)Nc1cccc(Oc2ccc3c(/C=C/c4ccccn4)n[nH]c3c2)c1", "AUClast", "ng·h/mL", 430683),
    ("CCCNC(=O)c1ccccc1Sc1ccc2c(/C=C/c3ccccn3)n[nH]c2c1", "AUClast", "ng·h/mL", 2445),
    ("O=C(Nc1cccc(Oc2ccc3c(/C=C/c4ccccn4)n[nH]c3c2)c1)c1ccccc1", "AUClast", "ng·h/mL", 40863),
    ("Cn1nc(C(C)(C)C)cc1C(=O)Nc1cccc(C(=O)c2ccc3c(/C=C/c4ccccn4)n[nH]c3c2)c1", "AUClast", "ng·h/mL", 9066),
]

Could you tell me AUClast for each of these compounds? They are listed below.
1. CC(C)NC(=O)c1ccccc1Sc1ccc2c(/C=C/c3ccccn3)n[nH]c2c1
2. Cc1cc(C(=O)Nc2cccc(C(=O)c3ccc4c(/C=C/c5ccccn5)n[nH]c4c3)c2)on1

Result:
4048
9

* * *

# assayName: Determination of inhibitor concentration in mouse plasma after intraperitoneal and oral dosing
# Type: in vivo
# testContext: female, PO, 25 mg/kg, vehicle PEG400:H2O pH 2.3 30:70, read-out: Cmin (7 hr conc.)
What concentration at 7 h was measured for each of the following?
One number for each entry, in ng/mL.

# compound, concentration at 7 h [ng/mL]
measured = [
    ("COc1cccc(CNC(=O)c2ccccc2Sc2ccc3c(/C=C/c4ccccn4)n[nH]c3c2)c1 [Example 35(aa)]", 106),
    ("CN(O)C(=O)c1ccccc1Sc1ccc2c(/C=C/c3ccccn3)n[nH]c2c1 [Example 35(o)]", 3),
    ("Cc1cc(C(=O)Nc2cc(C(=O)c3ccc4c(/C=C/c5ccccn5)n[nH]c4c3)ccc2C)n(C(C)C)n1 [Example 41(kk)]", 415),
]

Below is a list of compounds. For each, state its recorded concentration at 7 h.
1. Cc1cc(C(=O)Nc2cccc(C(=O)c3ccc4c(/C=C/c5ccccn5)n[nH]c4c3)c2)n(C(C)C)n1 [Example 41(x)]
2. O=C(NCCc1cccs1)c1ccccc1Sc1ccc2c(/C=C/c3ccccn3)n[nH]c2c1 [Example 35(hh)]
3. CCn1nc(C)cc1C(=O)Nc1cccc(Oc2ccc3c(/C=C/c4cn(C)c(C)n4)n[nH]c3c2)c1 [Example 31(f)]
4. COc1cc(C(=O)Nc2cccc(C(=O)c3ccc4c(/C=C/c5ccccn5)n[nH]c4c3)c2)cc(Cl)n1 [Example 41(u)]
5. C#CCNC(=O)c1ccccc1Nc1ccc2c(/C=C/c3ccccn3)n[nH]c2c1 [Example 39(b)]
6. Cc1cc(C(=O)Nc2cc(Nc3ccc4c(/C=C/c5ccccn5)n[nH]c4c3)ccc2F)n(C)n1 [Example 49(a)]
7. Cc1cc(C(=O)Nc2cc(Nc3ccc4c(/C=C/c5ccccn5)n[nH]c4c3)ccc2C)n(C)n1 [Example 49(b)]
8. COc1ccc(CNC(=O)c2ccccc2Sc2ccc3c(/C=C/c4ccccn4)n[nH]c3c2)cc1 [Example 35(g)]

Result:
1270
5
9520
51
3150
15
5000
28

List concentration at 7 h for every entry below, keeping the order given.
1. CCCONC(=O)c1ccccc1Sc1ccc2c(/C=C/c3ccccn3)n[nH]c2c1 [Example 35(t)]
2. O=C(NNC(=O)c1ccccc1Sc1ccc2c(/C=C/c3ccccn3)n[nH]c2c1)c1cccs1 [Example 35(m)]
3. CCn1nc(C)cc1C(=O)Nc1cccc(Oc2ccc3c(/C=C/c4c[nH]c(C)n4)n[nH]c3c2)c1 [Example 32(c)]
4. Cn1ccnc1C(=O)Nc1cccc(Oc2ccc3c(/C=C/c4ccccn4)n[nH]c3c2)c1 [Example 31(e)]
5. Cn1ccnc1/C=N/NC(=O)c1ccccc1Sc1ccc2c(/C=C/c3ccccn3)n[nH]c2c1 [Example 36(a)]

Result:
41
0
10
2950
17

Quick batch: concentration at 7 h for everything below.
1. Cc1cnccc1C(=O)Nc1cccc(C(=O)c2ccc3c(/C=C/c4ccccn4)n[nH]c3c2)c1 [Example 41(j)]
2. O=C(NNc1ccccn1)c1ccccc1Sc1ccc2c(/C=C/c3ccccn3)n[nH]c2c1 [Example 35(n)]
3. CCCn1nc(C)cc1C(=O)Nc1cc(C(=O)c2ccc3c(/C=C/c4ccccn4)n[nH]c3c2)ccc1C [Example 41(ii)]
4. Cc1cc(C(=O)Nc2cc(C(=O)c3ccc4c(/C=C/c5ccccn5)n[nH]c4c3)ccc2C)n(C)n1 [Example 41(hh)]

Result:
1: 17; 2: 55; 3: 346; 4: 405
